# Target system: MALAT1
# Study conditions: ASO, A431, 0.005 µM
After the bases stand the sugars from the 5' end (letter, count) and the backbone: PS all phosphorothioate, else s phosphorothioate and o phosphodiester by linkage. Methylation of C is not given here. k = constrained ethyl (cEt); d = 2'-deoxy (DNA)
Category | rule: reported target mRNA inhibition within range, see range A (below 10%), range B (10% to below 30%), range C (30% or more)

Input sequence	Class
CTCCCCCCCGCCTCAG (sugars k3 d10 k3, PS)	range B
TCCTGACAAATTATAC (sugars k3 d10 k3, PS)	range B
CGCCATGGAAAGCGAG (sugars k3 d10 k3, PS)	range B
CGTTACCTTGAAACCG (sugars k3 d10 k3, PS)	range C
AGCTTCATCAAACACT (sugars k3 d10 k3, PS)	range A

Query string: For the record GCAGCGGGATCAGAAC (sugars k3 d10 k3, PS) , report the class its target mRNA inhibition corresponds to.
Result string: range C

Query string: What do you have for CCTGATCTGGTCCATT (sugars k3 d10 k3, PS) ?
Result string: range C

Query string: What do you have for TTTGAACCCCGTCCTG (sugars k3 d10 k3, PS) ?
Result string: range A

Query string: What do you have for TCAATCCACTTGATCC (sugars k3 d10 k3, PS) ?
Result string: range B

Query string: What do you have for TACAGAAAGAGTCCTG (sugars k3 d10 k3, PS) ?
Result string: range B

Query string: What do you have for AGACAGATTAGTAGTC (sugars k3 d10 k3, PS) ?
Result string: range A

Query string: What do you have for TTACCCCAACTAAACA (sugars k3 d10 k3, PS) ?
Result string: range A

Query string: What do you have for GTCTTAGCAGAGAATT (sugars k3 d10 k3, PS) ?
Result string: range C

Query string: What do you have for CTTGATCCCAACTCAT (sugars k3 d10 k3, PS) ?
Result string: range B

Query string: What do you have for GATCATAATCTCCCAC (sugars k3 d10 k3, PS) ?
Result string: range C

Query string: What do you have for AGTTATATTAGGTTCT (sugars k3 d10 k3, PS) ?
Result string: range B
